Reported values of DC50 for individual entries
Molecular target: GSK3β (Homo sapiens, UniProt P49841+Q96SW2)
Construct: genetically engineered using CRISPR/Cas9 technology to endogenously tag GSK3p protein with HiBiT tag at the C-terminus; host or cells: HEK293 cells, CRISPR/Cas9 knock-in of HiBiT at the endogenous GSK3B locus
Sequence (P49841 whole entry): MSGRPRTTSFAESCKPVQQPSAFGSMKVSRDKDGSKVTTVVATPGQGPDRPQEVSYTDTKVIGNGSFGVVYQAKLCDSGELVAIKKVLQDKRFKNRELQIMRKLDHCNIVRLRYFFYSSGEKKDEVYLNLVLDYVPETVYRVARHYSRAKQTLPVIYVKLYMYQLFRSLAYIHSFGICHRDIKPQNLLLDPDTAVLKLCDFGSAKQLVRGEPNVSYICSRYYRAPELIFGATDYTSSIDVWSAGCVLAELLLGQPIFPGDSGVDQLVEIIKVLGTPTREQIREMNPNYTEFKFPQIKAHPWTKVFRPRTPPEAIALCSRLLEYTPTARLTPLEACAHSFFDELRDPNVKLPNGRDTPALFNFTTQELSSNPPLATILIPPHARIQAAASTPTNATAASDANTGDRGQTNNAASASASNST
Sequence (Q96SW2 whole entry): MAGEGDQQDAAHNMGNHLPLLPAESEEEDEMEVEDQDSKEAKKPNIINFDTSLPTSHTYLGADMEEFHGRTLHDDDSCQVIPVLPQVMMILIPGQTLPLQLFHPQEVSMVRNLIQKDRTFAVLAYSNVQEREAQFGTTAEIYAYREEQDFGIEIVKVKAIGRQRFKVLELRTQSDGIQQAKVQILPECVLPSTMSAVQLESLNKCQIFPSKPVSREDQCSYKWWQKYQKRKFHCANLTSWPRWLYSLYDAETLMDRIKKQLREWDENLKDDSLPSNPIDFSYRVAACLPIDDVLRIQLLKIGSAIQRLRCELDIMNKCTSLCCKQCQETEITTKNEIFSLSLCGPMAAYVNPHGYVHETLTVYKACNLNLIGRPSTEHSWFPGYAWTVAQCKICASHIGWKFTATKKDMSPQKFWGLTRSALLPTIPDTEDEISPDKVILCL
Sequence (Q16531 whole entry partner): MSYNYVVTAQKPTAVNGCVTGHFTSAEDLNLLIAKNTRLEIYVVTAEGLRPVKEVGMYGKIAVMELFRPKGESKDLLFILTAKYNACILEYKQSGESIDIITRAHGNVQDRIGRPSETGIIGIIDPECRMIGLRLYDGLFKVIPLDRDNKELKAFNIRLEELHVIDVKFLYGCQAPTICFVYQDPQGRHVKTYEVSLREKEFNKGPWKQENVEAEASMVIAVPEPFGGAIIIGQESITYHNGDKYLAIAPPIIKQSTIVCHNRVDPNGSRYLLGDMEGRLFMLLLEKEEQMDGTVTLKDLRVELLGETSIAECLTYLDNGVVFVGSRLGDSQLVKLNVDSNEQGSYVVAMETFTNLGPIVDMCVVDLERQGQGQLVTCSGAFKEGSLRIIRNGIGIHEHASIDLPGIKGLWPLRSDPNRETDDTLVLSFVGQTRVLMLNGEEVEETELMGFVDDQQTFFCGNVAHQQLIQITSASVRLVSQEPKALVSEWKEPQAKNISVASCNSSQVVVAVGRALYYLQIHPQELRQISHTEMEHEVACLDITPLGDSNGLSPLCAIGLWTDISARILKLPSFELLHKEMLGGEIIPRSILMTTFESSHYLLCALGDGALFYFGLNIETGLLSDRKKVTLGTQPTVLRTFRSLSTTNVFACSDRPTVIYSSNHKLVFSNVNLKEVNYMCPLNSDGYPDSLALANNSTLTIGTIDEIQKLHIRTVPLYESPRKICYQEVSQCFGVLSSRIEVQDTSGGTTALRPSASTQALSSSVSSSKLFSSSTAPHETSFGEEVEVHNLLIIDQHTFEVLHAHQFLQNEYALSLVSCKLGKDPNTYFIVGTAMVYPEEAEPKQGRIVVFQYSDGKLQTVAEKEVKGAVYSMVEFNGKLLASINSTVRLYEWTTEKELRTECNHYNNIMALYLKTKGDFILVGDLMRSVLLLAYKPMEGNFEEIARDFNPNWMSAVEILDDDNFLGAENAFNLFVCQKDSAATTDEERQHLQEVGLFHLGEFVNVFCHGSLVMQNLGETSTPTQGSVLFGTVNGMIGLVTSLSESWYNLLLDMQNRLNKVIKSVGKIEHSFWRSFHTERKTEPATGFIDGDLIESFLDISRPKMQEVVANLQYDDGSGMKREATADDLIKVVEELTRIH
Test: High throughput screening for GSK3β-HiBiT targeted degradation (Nano-Glo HiBiT Lytic luminescence)
Type: cell-based
Conditions: HEK293 cells with endogenously HiBiT-tagged GSK3β, 24 h incubation, 0.01-30 μM; products of one-pot plate array (FIG. 1, Method A); read-out: DC50 (half-maximal degradation concentration)

Some compounds with recorded DC50:
>  <compound>
COc1ccc(-c2ocnc2C(=O)NCCCn2cc(COCCOCCN3CCN(Cc4ccc(C(=O)NC5CCC(=O)NC5=O)nc4)CC3)nn2)cc1Cl (centres unmarked) [AHD2B-1-F10]

>  <DC50>
> 10 µM

$$$$
>  <compound>
COc1ccc(-c2ocnc2C(=O)NCCCn2cc(CCCOc3ccc(CN4CCN(CC(=O)N[C@H](C(=O)N5C[C@H](O)C[C@H]5C(=O)NCc5ccc(-c6scnc6C)cc5)C(C)(C)C)CC4)cc3)nn2)cc1Cl [AHD2B-1-B4]

>  <DC50>
> 10 µM

$$$$
>  <compound>
COc1ccc(-c2ocnc2C(=O)NCCCn2cc(CCCOc3ccc(CN4CCN(Cc5ccc(C(=O)NC6CCC(=O)NC6=O)nc5)CC4)cc3)nn2)cc1Cl (centres unmarked) [AHD2B-1-F4]

>  <DC50>
0.25 µM

$$$$

input: I'm curious: which DC50 was measured for COc1ccc(-c2ocnc2C(=O)NCCCn2cc(-c3cccc(CN4CCN(Cc5cccc(N6CCC(=O)NC6=O)c5)CC4)n3)nn2)cc1Cl [AHD2B-1-A8] tested on GSK3β (Homo sapiens, UniProt P49841+Q96SW2)?
output: > 10 µM

input: Form field - read-out: DC50; system: GSK3β (Homo sapiens, UniProt P49841+Q96SW2); submitted item: COc1ccc(-c2ocnc2C(=O)NCCCn2cc(COc3ccc(CN4CCC5(C4)CN(CC(=O)N[C@H](C(=O)N4C[C@H](O)C[C@H]4C(=O)NCc4ccc(-c6scnc6C)cc4)C(C)(C)C)C5)cc3)nn2)cc1Cl [AHD2B-1-B6]
output: > 10 µM

input: Query the reported DC50 for GSK3β (Homo sapiens, UniProt P49841+Q96SW2); item: COc1ccc(-c2ocnc2C(=O)NCCCn2cc(CCCOc3ccc(CN4CCN(Cc5cccc(N6CCC(=O)NC6=O)c5)CC4)cc3)nn2)cc1Cl [AHD2B-1-A4]
output: > 10 µM

input: DC50 of COc1ccc(-c2ocnc2C(=O)NCCCn2cc(-c3ccc(CN4CCN(Cc5cccc(N6CCC(=O)NC6=O)c5)CC4)cn3)nn2)cc1Cl [AHD2B-1-A2] on GSK3β (Homo sapiens, UniProt P49841+Q96SW2)?
output: > 10 µM

input: DC50 of COc1ccc(-c2ocnc2C(=O)NCCCn2cc(COC3CCN(Cc4cccc(N5CCC(=O)NC5=O)c4)CC3)nn2)cc1Cl [AHD2B-1-A5] on GSK3β (Homo sapiens, UniProt P49841+Q96SW2)?
output: > 10 µM

====

Measured Dmax (maximal effect) by item
Target: GSK3β (Homo sapiens, UniProt P49841+Q96SW2)
Construct: genetically engineered using CRISPR/Cas9 technology to endogenously tag GSK3p protein with HiBiT tag at the C-terminus; host or cells: HEK293 cells, CRISPR/Cas9 knock-in of HiBiT at the endogenous GSK3B locus
Experiment: High throughput screening for GSK3β-HiBiT targeted degradation (Nano-Glo HiBiT Lytic luminescence)
Assay type: cell-based
Conditions: HEK293 cells with endogenously HiBiT-tagged GSK3β, 24 h incubation; products of one-pot plate array (FIG. 1, Method A)

Below are worked cases with known answers.
>  <compound>
COc1ccc(-c2ocnc2C(=O)NCCCn2cc(-c3ccc(CN4CCN(Cc5ccc6c(N7CCC(=O)NC7=O)nn(C)c6c5)CC4)cn3)nn2)cc1Cl [AHD2B-1-D2]

>  <targetOrTestSystem>
GSK3β (Homo sapiens, UniProt P49841+Q96SW2)

>  <Dmax (maximal effect)>
63%

$$$$
>  <compound>
COc1ccc(-c2ocnc2C(=O)NCCCn2cc(COC3CCN(Cc4cccc(N5CCC(=O)NC5=O)c4)CC3)nn2)cc1Cl

>  <targetOrTestSystem>
GSK3β (Homo sapiens, UniProt P49841+Q96SW2)

>  <Dmax (maximal effect)>
<30%

$$$$

// next item, Dmax (maximal effect) requested
input: Endpoint output: Dmax (maximal effect) of COc1ccc(-c2ocnc2C(=O)NCCCn2cc(CCCCCN3CCCN(Cc4ccc(C(=O)NC5CCC(=O)NC5=O)nc4)CC3)nn2)cc1Cl (stereo not drawn) . Value?
output: <30%
